Below is a list of entries, each paired with its recorded IC50 value.
Tested on: cMYC
Experiment: Inhibition of cMYC expression in MV4-11 cells (real-time PCR)
Format: cell-based, Human
Conditions: Homo sapiens, 3 h, cMYC mRNA, read-out: c-myc activity
Property: IC50

>>> val("Cc1noc(C)c1-c1cnc(Oc2ccccc2)c(NCc2ccccc2)c1")
"0.3 to 3 µM"
>>> val("CNc1ncc(-c2c(C)noc2C)cc1NCc1ccccn1")
"0.3 to 3 µM"
>>> val("COc1ncc(-c2c(C)noc2C)cc1Nc1cc(C(N)=O)ccc1C")
"0.3 to 3 µM"
>>> val("COc1ncc(-c2c(C)noc2C)cc1Oc1ccccc1")
"0.3 to 3 µM"
>>> val("COc1ncc(-c2c(C)noc2C)cc1NCc1ccncc1")
"3 to 30 µM"
>>> val("COc1ncc(-c2c(C)noc2C)cc1Nc1cccc(F)c1")
"0.3 to 3 µM"
>>> val("COc1ncc(-c2c(C)noc2C)cc1NCc1ccc2ccccc2c1")
"3 to 30 µM"
>>> val("COc1ncc(-c2c(C)noc2C)cc1NC(C)c1ccc(F)cc1 (stereo not drawn)")
"0.3 to 3 µM"
>>> val("COc1ncc(-c2c(C)noc2C)cc1OCc1ccc(F)cc1")
"3 to 30 µM"
>>> val("CNc1ncc(-c2c(C)noc2C)cc1Nc1cc(C#N)ccc1C")
"0.3 to 3 µM"
>>> val("Cc1noc(C)c1-c1cnc(Oc2ccccc2)c(NCc2nccs2)c1")
"3 to 30 µM"
>>> val("COc1ncc(-c2c(C)noc2C)cc1OC(C)c1ccccc1 (stereo not drawn)")
"3 to 30 µM"
>>> val("CNc1ncc(-c2c(C)noc2C)cc1NCc1ccc(C#N)s1")
"0.3 to 3 µM"
>>> val("COc1ncc(-c2c(C)noc2C)cc1Nc1c(C)noc1C")
"≤ 0.3 µM"
>>> val("COc1ncc(-c2c(C)noc2C)cc1NCc1ccc(C#N)c(F)c1")
"0.3 to 3 µM"

---

Test system: cMYC
Assay: Inhibition of cMYC expression in MV4-11 cells (real-time PCR)
Assay type: cell-based, Human
Conditions: Homo sapiens, 3 h, cMYC mRNA, read-out: c-myc activity
Property: IC50

>>> val("COc1ncc(-c2c(C)noc2C)cc1OCc1ccsc1 [Example 37]")
"0.3 to 3 µM"
>>> val("COc1ncc(-c2c(C)noc2C)cc1NC(C)c1ccccn1 (centres unmarked) [Example 24]")
"0.3 to 3 µM"
>>> val("COc1ncc(-c2c(C)noc2C)cc1NCc1ccc(F)cc1 [Example 6]")
"0.3 to 3 µM"
>>> val("COc1ncc(-c2c(C)noc2C)cc1NCc1ccc(C#N)cc1 [Example 11]")
"0.3 to 3 µM"
>>> val("COc1ncc(-c2c(C)noc2C)cc1NCc1cccnc1 [Example 33]")
"0.3 to 3 µM"
>>> val("COc1ncc(-c2c(C)noc2C)cc1NCc1ccccn1 [Example 21]")
"0.3 to 3 µM"
>>> val("COc1ncc(-c2c(C)noc2C)cc1NC(C)c1ccccc1 (centres unmarked) [Example 5]")
"0.3 to 3 µM"
>>> val("Cc1noc(C)c1-c1cnc(Oc2ccccc2)c(NCc2ccccn2)c1 [Example 51]")
"0.3 to 3 µM"
>>> val("COc1ncc(-c2c(C)noc2C)cc1NCc1nc2ccccc2o1 [Example 46]")
"0.3 to 3 µM"
>>> val("CNc1ncc(-c2c(C)noc2C)cc1NCc1ccccc1 [Example 45]")
"0.3 to 3 µM"
>>> val("COc1ncc(-c2c(C)noc2C)cc1NCc1ccc(C#N)cc1F [Example 28]")
"3 to 30 µM"
>>> val("COc1ncc(-c2c(C)noc2C)cc1Oc1cc(C(N)=O)ccc1C [Example 67]")
"0.3 to 3 µM"
>>> val("COc1ncc(-c2c(C)noc2C)cc1NCc1ccc(Cl)s1 [Example 8]")
"3 to 30 µM"
>>> val("COc1ncc(-c2c(C)noc2C)cc1NCc1nccs1 [Example 41]")
"≤ 0.3 µM"
>>> val("COc1ncc(-c2c(C)noc2C)cc1Oc1cc(C#N)ccc1C [Example 65]")
"3 to 30 µM"
>>> val("COc1ncc(-c2c(C)noc2C)cc1Nc1cn(C)nc1C [Example 63]")
"0.3 to 3 µM"
>>> val("COc1ncc(-c2c(C)noc2C)cc1NCc1cccc2ncccc12 [Example 58]")
"0.3 to 3 µM"
>>> val("COc1ncc(-c2c(C)noc2C)cc1Nc1ccc(Cl)cc1 [Example 36]")
"0.3 to 3 µM"
>>> val("COc1ncc(-c2c(C)noc2C)cc1Nc1ccccc1F [Example 18]")
"3 to 30 µM"
>>> val("COc1ncc(-c2c(C)noc2C)cc1Nc1cccnc1C [Example 59]")
"0.3 to 3 µM"
>>> val("COc1ncc(-c2c(C)noc2C)cc1OCc1ccccn1 [Example 40]")
"0.3 to 3 µM"
>>> val("COc1ncc(-c2c(C)noc2C)cc1NC(C)c1ccc(Cl)cc1 (centres unmarked) [Example 22]")
"3 to 30 µM"
>>> val("COc1ncc(-c2c(C)noc2C)cc1Nc1c(C)nn(C)c1C [Example 60]")
"≤ 0.3 µM"
>>> val("COc1ncc(-c2c(C)noc2C)cc1NCc1nc2ccccc2s1 [Example 57]")
"0.3 to 3 µM"
>>> val("CCOc1ncc(-c2c(C)noc2C)cc1NCc1ccccc1 [Example 39]")
"0.3 to 3 µM"
>>> val("COc1ncc(-c2c(C)noc2C)cc1NCc1ccc(C#N)s1 [Example 50]")
"0.3 to 3 µM"
>>> val("COc1ncc(-c2c(C)noc2C)cc1Nc1ccc(F)cc1 [Example 19]")
"0.3 to 3 µM"
>>> val("COc1ncc(-c2c(C)noc2C)cc1NCc1cc(C)sc1C [Example 20]")
"3 to 30 µM"
>>> val("CNc1ncc(-c2c(C)noc2C)cc1NCc1ccsc1 [Example 68]")
"0.3 to 3 µM"
>>> val("Cc1noc(C)c1-c1cnc(OC(C)C)c(NCc2ccccc2)c1 [Example 27]")
"3 to 30 µM"
>>> val("COc1ncc(-c2c(C)noc2C)cc1NCc1ccsc1 [Example 9]")
"0.3 to 3 µM"
>>> val("COc1ncc(-c2c(C)noc2C)cc1-c1c(C)noc1C [Example 34]")
"3 to 30 µM"
>>> val("COc1ncc(-c2c(C)noc2C)cc1Oc1cccnc1C [Example 66]")
"3 to 30 µM"
>>> val("COc1ncc(-c2c(C)noc2C)cc1NCCc1ccccc1 [Example 26]")
"3 to 30 µM"
>>> val("COc1ncc(-c2c(C)noc2C)cc1NCc1cnoc1 [Example 42]")
"0.3 to 3 µM"
>>> val("COc1ncc(-c2c(C)noc2C)cc1OCc1ccccc1 [Example 10]")
"0.3 to 3 µM"
>>> val("COc1ncc(-c2c(C)noc2C)cc1Nc1cccnc1 [Example 1]")
"3 to 30 µM"
>>> val("CNc1ncc(-c2c(C)noc2C)cc1NCc1nccs1 [Example 56]")
"0.3 to 3 µM"
>>> val("COc1ncc(-c2c(C)noc2C)cc1Nc1ccc(C#N)cc1 [Example 35]")
"3 to 30 µM"
>>> val("COc1ncc(-c2c(C)noc2C)cc1NCc1ccc(Br)cc1 [Example 23]")
"3 to 30 µM"
>>> val("COc1ncc(-c2c(C)noc2C)cc1NCc1ccccc1 [Example 2]")
"0.3 to 3 µM"

---

Examples of molecules with documented IC50 follow.
Target: Brd4 bromodomain 1 (BRD4(1)) (Homo sapiens, UniProt O60885)
Assay: Inhibition of tetra-acetylated histone H4 binding to BET bromodomain (HTRF/FRET)
Details: His-tagged bromodomain 200 nM, biotinylated tetra-acetylated histone H4 peptide, 2 h room temperature
Property: IC50

>>> val("Cc1noc(C)c1-c1cnc(Oc2ccccc2)c(NCc2nccs2)c1")
"≤ 300 nM"
>>> val("COc1ncc(-c2c(C)noc2C)cc1Nc1cccc(C)c1")
"≤ 300 nM"
>>> val("COc1ncc(-c2c(C)noc2C)cc1NCc1cccnc1")
"≤ 300 nM"
>>> val("COc1ncc(-c2c(C)noc2C)cc1Nc1cn(C)nc1C")
"≤ 300 nM"
>>> val("COc1ncc(-c2c(C)noc2C)cc1Oc1cccnc1")
"3000 to 30000 nM"
>>> val("COc1ncc(-c2c(C)noc2C)cc1NC(C)c1ccccn1 (centres unmarked)")
"≤ 300 nM"
>>> val("COc1ncc(-c2c(C)noc2C)cc1NC(C)c1ccc(F)cc1 (centres unmarked)")
"≤ 300 nM"
>>> val("COc1ncc(-c2c(C)noc2C)cc1Nc1ccccc1F")
"≤ 300 nM"
>>> val("COc1ncc(-c2c(C)noc2C)cc1Nc1ccc(C#N)cc1")
"≤ 300 nM"
>>> val("COc1ncc(-c2c(C)noc2C)cc1NCc1ccc(C#N)cc1F")
"≤ 300 nM"
>>> val("COc1ncc(-c2c(C)noc2C)cc1OCc1ccccc1")
"≤ 300 nM"
>>> val("COc1ncc(-c2c(C)noc2C)cc1NCCc1ccccc1")
"300 to 3000 nM"
>>> val("CNc1ncc(-c2c(C)noc2C)cc1NCc1ccc(C#N)s1")
"≤ 300 nM"
>>> val("COc1ncc(-c2c(C)noc2C)cc1NCc1ccsc1")
"≤ 300 nM"
>>> val("COc1ncc(-c2c(C)noc2C)cc1NCc1nc2ccccc2o1")
"≤ 300 nM"
>>> val("COc1ncc(-c2c(C)noc2C)cc1OCc1ccccn1")
"≤ 300 nM"
>>> val("COc1ncc(-c2c(C)noc2C)cc1NCc1ccc(Cl)s1")
"≤ 300 nM"
>>> val("Cc1noc(C)c1-c1cnc(OCc2ccccc2)c(NCc2ccccc2)c1")
"300 to 3000 nM"
>>> val("COc1ncc(-c2c(C)noc2C)cc1NCc1ccccn1")
"≤ 300 nM"
>>> val("COc1ncc(-c2c(C)noc2C)cc1NCc1cc(C)sc1C")
"≤ 300 nM"
>>> val("CNc1ncc(-c2c(C)noc2C)cc1Nc1cc(C#N)ccc1C")
"300 to 3000 nM"
>>> val("COc1ncc(-c2c(C)noc2C)cc1Nc1cc(C#N)ccc1C")
"≤ 300 nM"
>>> val("COc1ncc(-c2c(C)noc2C)cc1NCc1ccc2ccccc2n1")
"≤ 300 nM"
>>> val("COc1ncc(-c2c(C)noc2C)cc1OCc1ccsc1")
"≤ 300 nM"
>>> val("COc1ncc(-c2c(C)noc2C)cc1NCc1cnoc1")
"≤ 300 nM"
>>> val("COc1ncc(-c2c(C)noc2C)cc1NCc1ncccn1")
"≤ 300 nM"
>>> val("COc1ncc(-c2c(C)noc2C)cc1NCc1ccc(C#N)s1")
"≤ 300 nM"
>>> val("CCOc1ncc(-c2c(C)noc2C)cc1NCc1ccccc1")
"≤ 300 nM"
>>> val("CNc1ncc(-c2c(C)noc2C)cc1Nc1cccnc1C")
"300 to 3000 nM"
>>> val("COc1ncc(-c2c(C)noc2C)cc1OCc1ccc(C#N)cc1")
"≤ 300 nM"
>>> val("COc1ncc(-c2c(C)noc2C)cc1NCc1ccc(Br)cc1")
"300 to 3000 nM"
>>> val("Cc1noc(C)c1-c1cnc(OC(C)C)c(NCc2ccccc2)c1")
"≤ 300 nM"
>>> val("COc1ncc(-c2c(C)noc2C)cc1NCc1ccc(Cl)cc1")
"≤ 300 nM"
>>> val("COc1ncc(-c2c(C)noc2C)cc1Nc1c(C)noc1C")
"≤ 300 nM"
>>> val("CNc1ncc(-c2c(C)noc2C)cc1NCc1ccccn1")
"≤ 300 nM"
>>> val("COc1ncc(-c2c(C)noc2C)cc1Nc1cccnc1")
"300 to 3000 nM"
>>> val("COc1ncc(-c2c(C)noc2C)cc1Nc1ccc(F)cc1")
"≤ 300 nM"
>>> val("COc1ncc(-c2c(C)noc2C)cc1Nc1ccc(Cl)cc1")
"≤ 300 nM"
>>> val("COc1ncc(-c2c(C)noc2C)cc1NCc1ccncc1")
"300 to 3000 nM"
>>> val("Cc1noc(C)c1-c1cnc(Oc2ccccc2)c(NCc2ccccc2)c1")
"≤ 300 nM"
>>> val("COc1ncc(-c2c(C)noc2C)cc1Oc1cccnc1C")
"300 to 3000 nM"

Sourced from patent US10179125B2
